experiment: in vivo; settings: male, ICR, mouse, in vivo, iv
No end group written: not given here.
measured_attribute: LD50 at 24 h (mg/kg)
Give the value, in units of mg/kg, as a plain number.

Query block: LD50 at 24 h for DNWWPKPPHQGPRPPRPRPKP-NH2 [Az, azemiopsin] ?
Result block: 0.51

###

assay: in vivo; details: male, ICR, mouse, in vivo, im
No end group written: not given here.
measured_attribute: LD50 at 24 h (mg/kg)
Provide the reading as a plain figure in mg/kg.

Query block: So what's the measured LD50 at 24 h for this one? DNWWPKPPHQGPRPPRPRPKP-NH2 [Az, azemiopsin]
Result block: 0.732

The origin of these recorded values is paper PMC5793121.
